Values compiled from the Human Domainome abundance scans (Beltran et al. 2025).

B1: Formin-binding protein 4, residues 593 to 636; numbered along this chain, Q8N3X1 (parent)
chain: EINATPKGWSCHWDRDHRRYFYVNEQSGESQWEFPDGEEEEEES

Variants of: B1
Test method notes: abundance fitness (aPCA) (normalised: wild type 0, dead -1); higher = more abundant; growth selection in yeast, the domain comes from the species named
Condition description: Homo sapiens
Y means recorded abundance fitness is -0.2 or above; N means it is below -0.2.

>>> print(df.to_string())
    mutation_id  label_value
 0         E29W            N
 1         G37R            N
 2         S10K            N
 3         E42L            Y
 4         S27T            Y
 5         E39C            Y
 6         R15Y            N
 7         S27C            N
 8          I2L            N
 9         W13G            N
10          A4Q            Y
11         E39W            Y
12         Y22G            N
13         E29I            Y
14         S10W            N
15          K7R            Y
16         N24S            N
17         R19G            N
18         G37W            Y
19          A4N            Y
20         W13K            N
21         R15E            Y
22         E33Y            N
23         G28M            N
24         F34Q            Y
25          E1K            Y
26          G8S            N
27         W13R            N
28         P35G            N
29         D16R            N
30         E33M            N
31         E25R            Y
32         Y20S            N
33         S30R            Y
34         F21W            N
35         E41V            Y
36         F34K            Y
37         H12C            N
38         S27P            N
39         P35T            N
40         F21A            Y
41         S27Q            N
42         F34N            N
43         E33P            N
44         P35Y            N
45         E25D            Y
46         D16C            N
47         F34M            Y
48          W9A            N
49         N24M            N
50         E40R            Y
51         D16G            N
52         H17R            Y
53         H17Y            Y
54         E38Y            N
